# assayed.target: delta opioid receptor (Rattus norvegicus, UniProt P33533)
# Construct: the forebrains were homogenized in Tris buffer in a Teflon®-glass homogenizer
# Sequence (P33533 whole entry): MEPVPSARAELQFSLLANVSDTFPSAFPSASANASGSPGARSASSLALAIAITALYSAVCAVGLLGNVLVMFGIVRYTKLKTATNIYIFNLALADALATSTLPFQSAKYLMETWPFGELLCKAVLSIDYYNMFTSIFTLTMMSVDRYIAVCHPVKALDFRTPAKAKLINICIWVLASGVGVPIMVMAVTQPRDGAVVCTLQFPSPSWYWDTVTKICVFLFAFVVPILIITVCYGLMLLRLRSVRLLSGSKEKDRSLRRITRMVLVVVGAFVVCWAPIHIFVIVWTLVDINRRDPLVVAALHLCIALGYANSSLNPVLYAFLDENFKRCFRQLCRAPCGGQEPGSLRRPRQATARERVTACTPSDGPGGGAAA
# test.protocol: Rat brain delta opioid receptor binding assay
# condition.notes: rat forebrain membranes, 0.25 nM [3H]naltrindole; read-out: δ-binding (Naltrindole ligand) Ki
value.kind: pKi
Answer as the number alone; pKi is minus log10 of concentration in mol/L.

Q. What value of measured pKi is listed for COc1ccc(Oc2cc(-c3ccncc3)ccc2NC[C@@H]2CCCN2)cc1 ?
A. 7.81

====

# assayed.target: δ-opioid receptor (Mus musculus, UniProt P32300)
# Construct: NG108-15 cell membranes were purchased from Applied Cell Sciences (Rockville, Md.)
# Sequence (P32300 whole entry): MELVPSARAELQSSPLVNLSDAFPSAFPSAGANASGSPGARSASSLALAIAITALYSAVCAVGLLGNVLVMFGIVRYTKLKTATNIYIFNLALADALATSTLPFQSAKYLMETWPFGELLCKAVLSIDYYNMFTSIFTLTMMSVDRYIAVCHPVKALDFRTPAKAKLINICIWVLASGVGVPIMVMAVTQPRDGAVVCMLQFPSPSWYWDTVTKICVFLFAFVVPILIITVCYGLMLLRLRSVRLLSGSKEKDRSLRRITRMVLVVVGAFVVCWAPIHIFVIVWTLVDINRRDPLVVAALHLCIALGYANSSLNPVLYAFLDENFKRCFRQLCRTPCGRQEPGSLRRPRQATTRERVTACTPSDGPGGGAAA
# test.protocol: [35S]GTPγS δ-opioid receptor functional assay (EC50, relative efficacy, % inhibition)
# Type: biochemical
List of GTγPS δ-opioid receptor Rel Efficacy values.
Answer using only a numeral; do not append any unit.

Example molecules with recorded GTγPS δ-opioid receptor Rel Efficacy:
# smiles.structure, assayed.target, GTγPS δ-opioid receptor Rel Efficacy
measured = [
    ("COc1ccc(Oc2cc(-c3cncc(F)c3)ccc2NC[C@@H]2CCCN2)cc1", "δ-opioid receptor (Mus musculus, UniProt P32300)", 1.0908),
    ("COc1ccc(Oc2cc(-c3cncc(C#N)c3)ccc2NC[C@@H]2CCCN2)cc1", "δ-opioid receptor (Mus musculus, UniProt P32300)", 1.1554),
    ("CCN(CC)C(=O)CCc1ccc(NC[C@@H]2CCCN2)c(Oc2ccc(OC)cc2)c1", "δ-opioid receptor (Mus musculus, UniProt P32300)", 0.8333),
    ("Oc1ccc(Oc2cc(-c3cccnc3)ccc2NC[C@@H]2CCCN2)cc1", "δ-opioid receptor (Mus musculus, UniProt P32300)", 0.627),
    ("COc1ccc(Oc2cc(-c3cncc(C#N)c3)ccc2NC[C@@H]2C[C@@H](F)CN2)cc1", "δ-opioid receptor (Mus musculus, UniProt P32300)", 1.0158),
    ("Clc1cccc(Cl)c1Oc1cc(-c2ccccc2)ccc1NC[C@@H]1CCCN1", "δ-opioid receptor (Mus musculus, UniProt P32300)", 0.763),
]

Q. Could you tell me which GTγPS δ-opioid receptor Rel Efficacy is on file for COc1ccc(Oc2cc(-c3cccnc3)ccc2NC[C@@H]2CCCN2)cc1 ?
A. 0.9245

Q. Can you share its GTγPS δ-opioid receptor Rel Efficacy? I mean this molecule: COc1ccc(Oc2cc(-c3cncc(C)c3)ccc2NC[C@@H]2C[C@@H](F)CN2)cc1
A. 0.8756

Q. Recorded GTγPS δ-opioid receptor Rel Efficacy for COc1ccc(Oc2cc(-c3cncc(SC)c3)ccc2NC[C@@H]2C[C@@H](F)CN2)cc1 , please?
A. 1.0716
